Target: Trehalase (Sus scrofa)
Assay: Evaluated for the inhibition of trehalase from porcine kidneys
VALUE_TYPE: Ki (µM)
Numeric only. Scale: µM

Req: // Ki lookup, key: OCC1=CC(NC2COC(CO)C(O)C2O)C(O)C(O)C1O (stereo unspecified)
Resp: 0.18
